# System: primary cultured guinea-pig urinary bladder (GPB) cells
# Protocol notes: Membrane hyperpolarization (MHP) assay, DiBAC(4)3 / FLIPR
# Type: cell-based
# Experimental setup: Cavia porcellus, maximal steady-state hyperpolarization, normalized to response with 10 μM P1075 (100%)
# Procedure: Compounds were evaluated for potassium channel opening activity using primary cultured guinea-pig urinary bladder (GPB) cells. […] Functional activity at potassium channels was measured by evaluating changes in membrane potential using the bis-oxonol dye DiBAC(4) (Molecular Probes) in a 96-well cell-based kinetic assay system, Fluorescent Imaging Plate Reader (FLIPR) (K. S. Schroeder et al., J. Biomed. Screen., v. 1 pp. 75-81 (1996)), hereby incorporated by reference. […]
Quantity measured: Emax (%)
Respond with the bare value in %.

Below: 2 molecules and their reported Emax.
CC(C)(C1CCCCC1)C(NC(=O)c1ccc(Cl)cc1)NC(=N[N+](=O)[O-])Nc1cccnc1 (stereo not shown) [Example 130]
147
CN(C)CC(C)(C)C(NC(=O)c1ccc(Cl)cc1)NC(=NC#N)Nc1cccnc1 (stereo not shown) [Example 97]
74

Now for another entry.
Write down Emax measured for item COc1cccc(NC(=S)NC(NC(=O)c2ccc(C)cc2)C(F)(F)F)c1 (stereo not shown) [Example 12] 4

###

# Test system: primary cultured guinea-pig urinary bladder (GPB) cells
# Protocol notes: Membrane hyperpolarization (MHP) assay, DiBAC(4)3 / FLIPR
# Format: cell-based
# Experimental setup: Cavia porcellus, maximal steady-state hyperpolarization, normalized to response with 10 μM P1075 (100%)
Catalogue of Emax values
# value in %; strip the unit string

Cc1ccc(C(=O)N[C@H](NC(=S)Nc2cccnc2)C(C)(C)C)cc1 [Example 23]
66
Cc1ccc(C(=O)NC(N2CCN(c3cccc(F)c3)C2=S)C(Cl)(Cl)Cl)cc1 (stereo not shown) [Example 37]
85

Look up and report measured Emax (primary cultured guinea-pig urinary bladder (GPB) cells) for the following compound: Cc1ccc(C(=O)NC(NC(=S)Nc2ccccc2F)C(F)(F)F)cc1 (stereo not shown) [Example 11] 109

Look up primary cultured guinea-pig urinary bladder (GPB) cells data: Emax of CC(C)C(NC(=O)c1ccc(Cl)cc1)NC(=NC#N)Nc1cccnc1 (stereo not shown) [Example 63] , then report it. 73

Determine reported Emax for C=CCC(C)(C)C(NC(=O)c1ccc(Cl)cc1)NC(=N[N+](=O)[O-])Nc1cccnc1 (stereo not shown) [Example 127] ; test system: primary cultured guinea-pig urinary bladder (GPB) cells. 65

For primary cultured guinea-pig urinary bladder (GPB) cells, give Emax of the listed compound: Cc1ccc(C(=O)NC(Cc2ccccc2)NC(=S)Nc2cccc([N+](=O)[O-])c2)cc1 (stereo not shown) [Example 30] 22

Provide Emax, tested on primary cultured guinea-pig urinary bladder (GPB) cells, for C=CCOCC(CC)(COCC=C)C(NC(=O)c1ccc(Cl)cc1)NC(=NC#N)Nc1cccnc1 (stereo not shown) [Example 96] . 93

GET Emax where system = primary cultured guinea-pig urinary bladder (GPB) cells and item = Cc1ccc(C(=O)NC(NC(=O)Nc2ccccc2F)C(Cl)(Cl)Cl)cc1 (stereo not shown) [Example 43] 80

Fill: Emax (primary cultured guinea-pig urinary bladder (GPB) cells) for this compound O=C(NC(NC(=S)Nc1ccccc1F)C(F)(F)F)c1ccc(Cl)cc1 (stereo not shown) [Example 21] 96

Provide Emax, system primary cultured guinea-pig urinary bladder (GPB) cells, entry Cc1ccc(C(=O)NC(NC(=S)Nc2cccc(F)c2F)C(F)(F)F)cc1 (stereo not shown) [Example 18] 123

Give reported Emax for CC(C)(C)C(NC(=O)c1ccc(Cl)cc1)NC(=N[N+](=O)[O-])Nc1cccnc1 (stereo not shown) [Example 123] (primary cultured guinea-pig urinary bladder (GPB) cells) 90

GET Emax where system = primary cultured guinea-pig urinary bladder (GPB) cells and item = O=C(NC(NC(=S)Nc1cccnc1)C(F)(F)F)c1ccc(Cl)cc1 (stereo not shown) [Example 19] 117

Write down measured Emax (primary cultured guinea-pig urinary bladder (GPB) cells) for this compound. N#CN=C(Nc1cccnc1)NC(NC(=O)c1ccc(Cl)cc1)C(F)(F)F (stereo not shown) [Example 64] 89

GET Emax | system: primary cultured guinea-pig urinary bladder (GPB) cells | item: CC(C)(C)CC(NC(=O)c1ccc(Cl)cc1)NC(=NC#N)Nc1cccnc1 (stereo not shown) [Example 62] 81

Provide primary cultured guinea-pig urinary bladder (GPB) cells Emax reading for O=C(Nc1cccnc1)NC(NC(=O)c1ccccc1)C(Cl)(Cl)Cl (stereo not shown) [Example 40] . 100

Enter Emax (test system primary cultured guinea-pig urinary bladder (GPB) cells) for COc1ccc(NC(=S)NC(NC(=O)c2ccc(C)cc2)C(F)(F)F)cc1 (stereo not shown) [Example 6] 107

Return reported Emax for target or system primary cultured guinea-pig urinary bladder (GPB) cells, item CC(C)(Cc1ccccc1)C(NC(=O)c1ccc(Cl)cc1)NC(=N[N+](=O)[O-])Nc1cccnc1 (stereo not shown) [Example 128] . 116

Give Emax only, for Cc1ccc(C(=O)NC(NC(=NC#N)Nc2cccnc2)C(C)(C)C)cc1 (stereo not shown) [Example 51] , using primary cultured guinea-pig urinary bladder (GPB) cells data. 88

Write down measured Emax (primary cultured guinea-pig urinary bladder (GPB) cells) for this compound. Cc1ccccc1C(=O)NC(NC(=NC#N)Nc1cccnc1)C(Cl)(Cl)Cl (stereo not shown) [Example 50] 92

Look up and report Emax, with primary cultured guinea-pig urinary bladder (GPB) cells as system, for CCCCC(C)(C)C(NC(=O)c1ccc(Cl)cc1)NC(=NC#N)Nc1cccnc1 (stereo not shown) [Example 94] 82

Enter Emax (test system primary cultured guinea-pig urinary bladder (GPB) cells) for Cc1ccc(NC(=S)NC(NC(=O)c2ccc(C)cc2)C(F)(F)F)cc1 (stereo not shown) [Example 10] 65

Supply Emax measured with primary cultured guinea-pig urinary bladder (GPB) cells for Cc1ccc(C(=O)NC(CF)NC(=S)Nc2cccc([N+](=O)[O-])c2)cc1 (stereo not shown) [Example 32] . 15

Please look at Cc1ccc(C(=O)NC(NC(=S)Nc2cccnc2)C(C)C)cc1 (stereo not shown) [Example 35] and tell me its recorded Emax on primary cultured guinea-pig urinary bladder (GPB) cells. 40

Determine reported Emax for CC(C)(C)CC(NC(=O)c1ccc(Cl)cc1)NC(=N[N+](=O)[O-])Nc1cccnc1 (stereo not shown) [Example 124] ; test system: primary cultured guinea-pig urinary bladder (GPB) cells. 98

Report Emax under test system primary cultured guinea-pig urinary bladder (GPB) cells for N#CN=C(Nc1cccnc1)NC(CC12CC3CC(CC(C3)C1)C2)NC(=O)c1ccc(Cl)cc1 (stereo not shown) [Example 95] . 97

For primary cultured guinea-pig urinary bladder (GPB) cells, give Emax of the listed compound: Cc1ccc(C(=O)NC(NC(=S)Nc2cccnc2)C(C)(C)C)cc1 (stereo not shown) [Example 22] 100

State, for primary cultured guinea-pig urinary bladder (GPB) cells, measured Emax of the compound listed here: CC1=C(CC(NC(=O)c2ccc(Cl)cc2)NC(=N[N+](=O)[O-])Nc2cccnc2)C(C)(C)CCC1 (stereo not shown) [Example 129] 132

Lab note: primary cultured guinea-pig urinary bladder (GPB) cells assay, enter Emax for CCC(CC)(CCC#N)C(NC(=O)c1ccc(Cl)cc1)NC(=N[N+](=O)[O-])Nc1cccnc1 (stereo not shown) [Example 132] here 124

# return Emax of Cc1ccc(C(=O)NC(NC(=NC#N)Nc2ccccc2)C(Cl)(Cl)Cl)cc1 (stereo not shown) [Example 46] (system: primary cultured guinea-pig urinary bladder (GPB) cells) 105

Retrieve Emax on primary cultured guinea-pig urinary bladder (GPB) cells; query Cc1ccc(C(=O)NC(NC(=S)Nc2ccc(F)cc2F)C(F)(F)F)cc1 (stereo not shown) [Example 15] 70
